- System Tested: Sigma intracellular receptor 2 (Rattus norvegicus)
- Sequence (Q5U3Y7 whole entry): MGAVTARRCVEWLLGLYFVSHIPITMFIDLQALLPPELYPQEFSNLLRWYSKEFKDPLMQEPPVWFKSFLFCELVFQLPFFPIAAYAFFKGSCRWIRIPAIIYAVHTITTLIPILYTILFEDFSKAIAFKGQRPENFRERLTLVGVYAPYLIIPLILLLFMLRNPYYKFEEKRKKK
- Protocol Summary: Ray2010 Assay 42
Experimental Readout: Ki
Respond with the figure and its unit, in that order.

Req: Suppose we examine the compound CC[C@H]1C[C@@H]2C[C@H]3c4[nH]c5ccc(OC)cc5c4CCN(C2)[C@@H]13 ; what Ki value has been reported?
Resp: 90.4 nM

###

- System Tested: Muscarinic acetylcholine receptor M2 (Rattus norvegicus)
- Sequence (P10980 whole entry): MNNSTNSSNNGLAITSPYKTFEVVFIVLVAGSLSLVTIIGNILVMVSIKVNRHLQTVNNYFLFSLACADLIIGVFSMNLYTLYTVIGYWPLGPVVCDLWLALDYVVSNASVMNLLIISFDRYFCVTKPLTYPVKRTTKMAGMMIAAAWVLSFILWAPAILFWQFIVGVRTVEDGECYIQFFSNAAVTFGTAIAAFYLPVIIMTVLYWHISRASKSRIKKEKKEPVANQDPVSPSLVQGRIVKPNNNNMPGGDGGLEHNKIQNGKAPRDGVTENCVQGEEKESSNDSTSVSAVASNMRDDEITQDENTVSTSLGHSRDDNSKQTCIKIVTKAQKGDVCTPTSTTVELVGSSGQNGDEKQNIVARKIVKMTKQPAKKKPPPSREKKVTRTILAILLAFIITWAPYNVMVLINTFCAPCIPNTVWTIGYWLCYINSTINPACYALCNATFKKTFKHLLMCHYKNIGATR
Experimental Readout: pKi
// returns pKi (minus log10 of molar concentration), number only

Req: Suppose we examine the compound CC[C@H]1C[C@@H]2C[C@H]3c4[nH]c5ccc(OC)cc5c4CCN(C2)[C@@H]13 ; what pKi value has been reported?
Resp: 4.30

###

- System Tested: Sigma non-opioid intracellular receptor 1 (Homo sapiens)
- Sequence (Q99720 whole entry): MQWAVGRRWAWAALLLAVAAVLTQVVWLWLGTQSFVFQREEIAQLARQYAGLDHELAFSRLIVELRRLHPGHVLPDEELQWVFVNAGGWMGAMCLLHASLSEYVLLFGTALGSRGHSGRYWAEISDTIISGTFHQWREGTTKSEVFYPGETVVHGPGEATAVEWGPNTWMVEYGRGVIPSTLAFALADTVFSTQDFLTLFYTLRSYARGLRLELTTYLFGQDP
- Protocol Summary: Ray2010 Assay 74
The entries below are paired with their reported pKi.
// returns pKi (minus log10 of molar concentration), number only

The cases that follow already have their pKi on record.
> print(dat)
                                   compound  numeric.readout
1  CCc1cc(OC)c(CC(C)N)cc1OC (stereo not drawn)             5.01
2  COc1ccc2[nH]cc(CCN(C(C)C)C(C)C)c2c1 [5-meo-dipt]             5.02

Req: Provide the documented pKi with Sigma non-opioid intracellular receptor 1 (Homo sapiens) as the system for CCOc1cc(OC)c(CC(C)N)cc1OC (stereo not drawn)
Resp: 5.29

Req: Cool, now CCSc1cc(OC)c(CCN)cc1OC [2C-T-2]
Resp: 5.41

Req: Cool, now CCSc1cc(OC)c(CC(N)CC)cc1OC (stereo not drawn)
Resp: 6.29

Req: Cool, now CCCN(CCC)CCc1c[nH]c2ccccc12 [dpt]
Resp: 6.40

###

- System Tested: 5-hydroxytryptamine receptor 1A (Homo sapiens)
- Sequence (P08908 whole entry): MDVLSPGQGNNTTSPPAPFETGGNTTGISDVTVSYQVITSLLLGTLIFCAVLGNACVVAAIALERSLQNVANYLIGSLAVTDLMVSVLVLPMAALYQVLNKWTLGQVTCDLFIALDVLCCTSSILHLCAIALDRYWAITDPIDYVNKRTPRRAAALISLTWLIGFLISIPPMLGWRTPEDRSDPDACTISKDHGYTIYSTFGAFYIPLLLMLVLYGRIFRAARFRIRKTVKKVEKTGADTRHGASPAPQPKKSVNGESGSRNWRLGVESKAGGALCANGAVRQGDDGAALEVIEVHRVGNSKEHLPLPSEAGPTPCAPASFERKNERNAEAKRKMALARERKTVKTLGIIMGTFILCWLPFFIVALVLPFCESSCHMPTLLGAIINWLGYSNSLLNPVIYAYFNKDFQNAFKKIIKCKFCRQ
- Protocol Summary: Ray2010 Assay 28
pKi: −log10 of the molar value.
Experimental Readout: pKi

Req: Provide the documented pKi with 5-hydroxytryptamine receptor 1A (Homo sapiens) as the system for CC[C@H]1C[C@@H]2C[C@H]3c4[nH]c5ccc(OC)cc5c4CCN(C2)[C@@H]13
Resp: < 5.00

###

- System Tested: 5-hydroxytryptamine receptor 6 (Homo sapiens, UniProt P50406)
- Sequence (P50406 whole entry): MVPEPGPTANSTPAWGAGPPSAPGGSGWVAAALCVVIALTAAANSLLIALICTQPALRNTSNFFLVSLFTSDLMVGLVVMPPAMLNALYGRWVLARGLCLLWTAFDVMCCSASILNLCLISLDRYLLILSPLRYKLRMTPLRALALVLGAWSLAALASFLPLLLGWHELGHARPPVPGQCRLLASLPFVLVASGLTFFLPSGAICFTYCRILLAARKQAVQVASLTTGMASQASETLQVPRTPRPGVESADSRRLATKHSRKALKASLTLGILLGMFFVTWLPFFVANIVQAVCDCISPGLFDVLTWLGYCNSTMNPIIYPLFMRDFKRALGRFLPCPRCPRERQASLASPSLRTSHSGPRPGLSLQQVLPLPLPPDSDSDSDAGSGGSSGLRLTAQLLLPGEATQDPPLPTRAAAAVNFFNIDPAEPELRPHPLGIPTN
Experimental Readout: Ki (µM)
Note: unit µM is implicit; provide only the numeric part.

> print(dat)
                                   compound                             system.tested  experimental.readout  numeric.readout
1  C[C@@H]1C[C@@H](C)N1C(=O)C1C=C2c3cccc4[nH]cc(c34)C[C@H]2N(C)C1 (stereo partly specified) [ss-2c]  5-hydroxytryptamine receptor 6 (Homo sapiens, UniProt P50406)                    Ki           0.0145
2                CN(C)CCc1c[nH]c2cc(F)ccc12  5-hydroxytryptamine receptor 6 (Homo sapiens, UniProt P50406)                    Ki           0.0256
3  COc1cc(CC(C)N)c(OC)cc1C (stereo unspecified)  5-hydroxytryptamine receptor 6 (Homo sapiens, UniProt P50406)                    Ki             8.15

Req: Provide the documented Ki with 5-hydroxytryptamine receptor 6 (Homo sapiens, UniProt P50406) as the system for C[C@@H]1C[C@H](C)N1C(=O)C1C=C2c3cccc4[nH]cc(c34)C[C@H]2N(C)C1 (stereo partly drawn) [cis-2a]
Resp: 0.0129

Req: Cool, now CCCN(CCC)CCc1c[nH]c2ccccc12
Resp: 4.54

Req: Cool, now CCSc1cc(OC)c(CCN)cc1OC
Resp: 1.36

###

pKi: −log10 of the molar value.
pKi, Muscarinic acetylcholine receptor M3 (Homo sapiens, UniProt P20309): measured values

> print(dat)
                                   compound  experimental.readout  result
1                   CN(C)CCc1c[nH]c2ccccc12                   pKi  < 5.00
2           CC(C)N(CCc1c[nH]c2ccccc12)C(C)C                   pKi  < 5.00
3             CCc1[nH]c2ccc(OC)cc2c1CCN(C)C                   pKi  < 5.00
4  CCSc1cc(OC)c(CC(C)N)cc1OC (stereo unspecified)                   pKi    5.72
5  CCOc1cc(OC)c(CC(C)N)cc1OC (stereo unspecified)                   pKi  < 5.00

Req: Suppose we examine the compound CC[C@H]1C[C@@H]2C[C@H]3c4[nH]c5ccc(OC)cc5c4CCN(C2)[C@@H]13 ; what pKi value has been reported?
Resp: 4.90

Req: Cool, now COc1ccc2[nH]cc(CCN(C)C(C)C)c2c1
Resp: < 5.00

Req: Cool, now CCSc1cc(OC)c(CCN)cc1OC
Resp: 6.16

###

- System Tested: Glutamate receptor ionotropic, NMDA 2D (Rattus norvegicus, UniProt Q62645)
- Sequence (Q62645 whole entry): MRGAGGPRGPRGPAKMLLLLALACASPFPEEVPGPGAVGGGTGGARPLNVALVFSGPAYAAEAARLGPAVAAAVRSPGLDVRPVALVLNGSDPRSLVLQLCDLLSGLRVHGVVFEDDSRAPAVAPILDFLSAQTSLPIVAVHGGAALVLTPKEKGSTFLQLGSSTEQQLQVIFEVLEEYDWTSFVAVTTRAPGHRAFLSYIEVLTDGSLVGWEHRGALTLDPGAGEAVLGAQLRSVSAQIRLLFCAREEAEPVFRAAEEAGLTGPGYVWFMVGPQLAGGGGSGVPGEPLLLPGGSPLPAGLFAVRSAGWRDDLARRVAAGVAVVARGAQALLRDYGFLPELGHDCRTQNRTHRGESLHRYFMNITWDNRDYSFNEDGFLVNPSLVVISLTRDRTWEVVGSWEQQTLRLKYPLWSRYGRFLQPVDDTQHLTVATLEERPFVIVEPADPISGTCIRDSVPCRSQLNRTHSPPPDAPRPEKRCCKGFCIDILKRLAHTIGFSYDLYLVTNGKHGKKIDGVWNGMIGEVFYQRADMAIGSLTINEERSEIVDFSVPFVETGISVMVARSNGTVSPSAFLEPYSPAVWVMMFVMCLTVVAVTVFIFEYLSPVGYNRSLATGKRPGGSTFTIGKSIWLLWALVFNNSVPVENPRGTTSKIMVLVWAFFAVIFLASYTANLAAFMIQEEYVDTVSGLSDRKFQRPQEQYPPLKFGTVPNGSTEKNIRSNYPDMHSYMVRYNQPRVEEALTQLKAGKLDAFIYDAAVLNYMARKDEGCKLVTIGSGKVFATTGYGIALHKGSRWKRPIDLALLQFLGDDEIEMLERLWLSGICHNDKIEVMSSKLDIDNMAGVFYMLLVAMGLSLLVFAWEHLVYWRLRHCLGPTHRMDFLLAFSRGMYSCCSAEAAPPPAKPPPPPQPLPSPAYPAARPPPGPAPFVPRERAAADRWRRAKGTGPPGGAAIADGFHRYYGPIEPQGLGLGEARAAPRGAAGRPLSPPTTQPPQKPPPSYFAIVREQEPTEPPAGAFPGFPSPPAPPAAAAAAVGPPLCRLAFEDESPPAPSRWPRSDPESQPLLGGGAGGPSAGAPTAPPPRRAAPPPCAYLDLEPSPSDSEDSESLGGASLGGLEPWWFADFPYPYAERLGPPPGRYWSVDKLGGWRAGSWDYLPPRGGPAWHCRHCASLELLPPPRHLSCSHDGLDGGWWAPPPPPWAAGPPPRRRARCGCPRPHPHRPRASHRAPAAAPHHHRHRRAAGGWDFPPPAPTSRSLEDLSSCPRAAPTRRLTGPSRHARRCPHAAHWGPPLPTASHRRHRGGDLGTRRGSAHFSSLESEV
- Protocol Summary: Ray2010 Assay 62
Experimental Readout: pKi
// returns pKi (minus log10 of molar concentration), number only

Req: Provide the documented pKi with Glutamate receptor ionotropic, NMDA 2D (Rattus norvegicus, UniProt Q62645) as the system for CC[C@H]1C[C@@H]2C[C@H]3c4[nH]c5ccc(OC)cc5c4CCN(C2)[C@@H]13
Resp: 5.92

###

The entries below are paired with their reported pKi.
- System Tested: 5-hydroxytryptamine receptor 1A (Homo sapiens)
- Protocol Summary: Ray2010 Assay 74
// returns pKi (minus log10 of molar concentration), number only

> print(dat)
                                   molecule  experimental.readout  numeric.readout
1           CC(C)N(CCc1c[nH]c2ccccc12)C(C)C                   pKi             6.92
2  COc1cc(CC(C)N)c(OC)cc1C (centres undefined)                   pKi             5.44
3           COc1ccc2[nH]cc(CCN(C)C(C)C)c2c1                   pKi             7.91

Req: Provide the documented pKi with 5-hydroxytryptamine receptor 1A (Homo sapiens) as the system for CN(C)CCc1c[nH]c2cc(F)ccc12
Resp: 6.41

Req: Cool, now C[C@@H]1C[C@H](C)N1C(=O)C1C=C2c3cccc4[nH]cc(c34)C[C@H]2N(C)C1 (stereo partly drawn) [cis-2a]
Resp: 8.64

Req: Cool, now NCCc1c2c(c(Br)c3c1OCC3)OCC2
Resp: 6.83

Req: Cool, now COc1cc(CCN)c(OC)cc1Br
Resp: 6.62

Req: Cool, now CCSc1cc(OC)c(CC(C)N)cc1OC (centres undefined)
Resp: 5.78

Req: Cool, now CCc1cc(OC)c(CC(C)N)cc1OC (centres undefined)
Resp: 7.84

Req: Cool, now COc1cc(CCN)cc(OC)c1OC
Resp: 5.73

Req: Cool, now COc1ccc2[nH]cc(CCN(C(C)C)C(C)C)c2c1
Resp: 6.88

###

- System Tested: D(4) dopamine receptor (Homo sapiens, UniProt P21917)
- Sequence (P21917 whole entry): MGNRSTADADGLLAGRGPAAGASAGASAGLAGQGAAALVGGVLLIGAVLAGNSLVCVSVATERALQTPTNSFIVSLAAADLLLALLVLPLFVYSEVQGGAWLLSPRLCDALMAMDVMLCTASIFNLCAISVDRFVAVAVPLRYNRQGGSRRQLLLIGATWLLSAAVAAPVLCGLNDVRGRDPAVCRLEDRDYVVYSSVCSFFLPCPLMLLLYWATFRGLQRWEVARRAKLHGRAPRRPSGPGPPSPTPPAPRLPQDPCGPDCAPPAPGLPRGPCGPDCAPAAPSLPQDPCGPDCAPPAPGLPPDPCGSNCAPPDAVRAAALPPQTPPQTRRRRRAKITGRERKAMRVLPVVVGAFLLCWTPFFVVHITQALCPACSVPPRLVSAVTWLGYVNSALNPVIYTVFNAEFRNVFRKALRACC
pKi: −log10 of the molar value.
Experimental Readout: pKi

The cases that follow already have their pKi on record.
> print(dat)
                                   compound  experimental.readout  result
1  CCSc1cc(OC)c(CC(N)CC)cc1OC (centres undefined)                   pKi  < 5.00
2                     COc1cc(CCN)cc(OC)c1OC                   pKi  < 5.00
3                     COc1cc(CCN)c(OC)cc1Br                   pKi  < 5.00

Then there is this compound:
Req: Suppose we examine the compound COc1ccc2[nH]cc(CCN(C)C(C)C)c2c1 ; what pKi value has been reported?
Resp: 5.20
